Biological target: T1, human BCMA-Fc (human)
T1 chain: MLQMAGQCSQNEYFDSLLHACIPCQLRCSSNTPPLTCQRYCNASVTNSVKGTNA
Assay: SPR, 25C
Examples of binders with documented Kd follow.
For clarity, give the value followed by its unit.

Req: May I ask what Kd has been recorded for P1AG5004 (E04_VH1a/VL1b) (antibody, V domains shown) VH: QVQLVQSGAEVKKPGASVKVSCKASGYTFTNYWMHWVRQAPGQGLEWMGIIHPNSGSTNYNEKFQGRVTMTRDTSTSTVYMELSSLRSEDTAVYYCARGIYDYPFAYWGQGTLVTVSS VL: DIQMTQSPSSLSASVGDRVTITCRASESVSIHGTHLMHWYQQKPGKAPKLLIYAASNLESGVPSRFSGSGSETDFTLTISSLQPEDFATYYCQQSIEDPYTFGGGTKVEIK ?
Resp: 2.5 nM

Req: Record request: Kd value, item P1AG5053 (E04_VH1a/VL1h) (antibody, V domains shown) VH: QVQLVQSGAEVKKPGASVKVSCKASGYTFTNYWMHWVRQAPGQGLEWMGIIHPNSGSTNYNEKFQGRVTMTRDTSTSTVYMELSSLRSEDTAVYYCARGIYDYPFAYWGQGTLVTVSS VL: DIQMTQSPSSLSASVGDRVTITCRASESVSIHGTHLMHWYQQKPGKAPKLLIYAASNLESGVPSRFSGSGSETDFTLTISSLQPEDFATYFCQQSIEDPYTFGGGTKVEIK
Resp: 2.4 nM

Req: # get_value(readout='Kd', item= P1AG5030 (54_VH1b/VL2a) (antibody, V domains shown) VH: EVQLVESGGGLVKPGGSLRLSCAASGFTFSNAWMDWVRQAPGKGLEWIAQITAKSNNYATYYAAPVKGRFTISRDDSKNTLYLQMNSLKTEDTAVYYCTDDGYHWGQGTLVTVSS VL: DIQMTQSPSSLSASVGDRVTITCRASEDIRNGLAWYQQKPGKAPKLLIYNANSLHTGVPSRFSGSGSGTDFTLTISSLQPEDFATYYCEDTSKYPYTFGQGTKLEIK )
Resp: 1.3 nM

Req: Request the reported Kd associated with P1AG5071 (54_VH2a/VL1a_T699S) (antibody, V domains shown) VH: EVQLLESGGGLVQPGGSLRLSCAASGFTFSNAWMDWVRQAPGKGLEWVSQITAKSNNYATYYADSVKGRFTISRDNSKNTLYLQMNSLRAEDTAVYYCTDDGYHWGQGTLVTVSS VL: AIQMTQSPSSLSASVGDRVTITCRASEDIRNGLAWYQQKPGKAPKLLIYNANSLHSGVPSRFSGSGSGTDFTLTISSLQPEDFATYYCEDTSKYPYTFGQGTKLEIK
Resp: 3.4 nM

Req: Reported Kd, binder P1AG5027 (54_VH1b/VL1a_L1_pGL) (antibody, V domains shown) VH: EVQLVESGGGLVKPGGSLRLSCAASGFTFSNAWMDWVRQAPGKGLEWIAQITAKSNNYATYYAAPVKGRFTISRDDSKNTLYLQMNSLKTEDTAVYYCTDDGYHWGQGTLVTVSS VL: AIQMTQSPSSLSASVGDRVTITCRASEDIRNDLGWYQQKPGKAPKLLIYNANSLHTGVPSRFSGSGSGTDFTLTISSLQPEDFATYYCEDTSKYPYTFGQGTKLEIK : ____
Resp: 1.7 nM

Req: # lookup: Kd of P1AG5043 (E04_VH1a/VL1d) (antibody, V domains shown) VH: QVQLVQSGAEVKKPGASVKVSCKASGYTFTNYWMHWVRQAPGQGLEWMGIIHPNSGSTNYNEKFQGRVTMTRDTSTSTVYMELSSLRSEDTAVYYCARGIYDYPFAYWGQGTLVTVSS VL: DIQMTQSPSSLSASVGDRVTITCRASESVSIHGTHLMHWYQQKPGKAPKLLIYAASNLQSGVPSRFSGSGSETDFTLTISSLQPEDFATYYCQQSIEDPYTFGGGTKVEIK
Resp: 2.6 nM
